biological target: Substance-P receptor (Homo sapiens, UniProt P25103); experiment: In vitro inhibition of binding of [125I]Bolton-Hunter SP to Tachykinin receptor 1 in human IM-9 cell line
Sequence (P25103 whole entry): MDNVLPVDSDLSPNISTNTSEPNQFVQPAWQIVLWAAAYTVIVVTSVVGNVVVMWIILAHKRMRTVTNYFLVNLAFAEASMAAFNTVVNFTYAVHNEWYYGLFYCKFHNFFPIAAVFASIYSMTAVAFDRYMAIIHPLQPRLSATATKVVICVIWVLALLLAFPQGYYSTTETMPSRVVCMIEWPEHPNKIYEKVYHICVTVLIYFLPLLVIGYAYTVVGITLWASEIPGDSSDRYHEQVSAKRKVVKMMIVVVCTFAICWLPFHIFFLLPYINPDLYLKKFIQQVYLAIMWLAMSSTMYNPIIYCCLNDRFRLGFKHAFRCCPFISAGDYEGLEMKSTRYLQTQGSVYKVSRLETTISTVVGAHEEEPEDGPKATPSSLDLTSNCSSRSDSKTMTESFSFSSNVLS
Endpoint label: IC50 (nM)
Give just the number in nM; leave the unit off.

> print(dat)
                                    compound  endpoint.label  measured.value
 1  COc1ccccc1CN(CC(Cc1c[nH]c2ccccc12)NC(=O)COc1ccccc1OC)C(C)=O (centres undefined)            IC50              24
 2  COc1ccc(C(=O)CCC(=O)NC(Cc2c[nH]c3ccccc23)CN(Cc2ccccc2OC)C(C)=O)cc1 (centres undefined)            IC50             3.3
 3  COc1ccc(OCC(=O)NC(Cc2c[nH]c3ccccc23)CN(Cc2ccccc2OC)C(C)=O)cc1 (centres undefined)            IC50            10.2
 4  COc1ccccc1CN(CC(Cc1c[nH]c2ccccc12)NC(=O)COc1ccc(C(C)=O)cc1)C(C)=O (centres undefined)            IC50             3.5
 5  COc1ccccc1CN(CC(Cc1c[nH]c2ccccc12)NC(=O)CSc1ccccn1)C(C)=O (centres undefined)            IC50            10.8
 6  COc1ccccc1CN(CC(Cc1c[nH]c2ccccc12)NC(=O)COc1ccc(CO)cc1)C(C)=O (centres undefined)            IC50            0.82
 7  COc1ccc(CC(=O)NC(Cc2c[nH]c3ccccc23)CN(Cc2ccccc2OC)C(C)=O)cc1 (centres undefined)            IC50             9.7
 8  COc1ccccc1CN(C[C@@H](Cc1c[nH]c2ccccc12)NC(=O)COc1ccc(-c2csnn2)cc1)C(C)=O            IC50            0.98
 9  COc1ccccc1CN(CC(Cc1c[nH]c2ccccc12)NC(=O)COc1ccc(O)cc1)C(C)=O (centres undefined)            IC50             3.2
10  COc1ccccc1CN(CC(Cc1c[nH]c2ccccc12)NC(=O)Cc1ccc2c(c1)OCCO2)C(C)=O (centres undefined)            IC50             8.3

Provide value of IC50 for this record tested with Substance-P receptor (Homo sapiens, UniProt P25103): COc1ccccc1CN(C[C@@H](Cc1c[nH]c2ccccc12)NC(=O)COc1ccc(-n2ccnc2)cc1)C(C)=O
0.48

Same for COc1ccccc1CN(C[C@@H](Cc1c[nH]c2ccccc12)NC(=O)CCC(=O)c1ccccc1)C(C)=O
34

Same question, COc1ccccc1CN(CC(Cc1c[nH]c2ccccc12)NC(=O)CCC(=O)c1ccc(F)cc1)C(C)=O (centres undefined) this time
6

Now consider COc1ccccc1CN(C[C@@H](Cc1c[nH]c2ccccc12)NC(=O)COc1ccc(CO)cc1)C(C)=O and answer again.
0.43

---

assay: Bioavailability in dog; assay type: ADME, organism-based, Canis lupus familiaris; conditions: in vivo
Hi, to clarify the labels: Condition met covers bioavailability from 10% upward, Condition not met covers anything below 10%.

> print(dat)
                                   compound        label.class
1  COc1ccccc1CN(C[C@@H](Cc1c[nH]c2ccccc12)NC(=O)COc1ccc(CO)cc1)C(C)=O      Condition met
2  COc1ccccc1CN(C[C@@H](Cc1c[nH]c2ccccc12)NC(=O)CN1CCC(N2CCCCC2)CC1)C(C)=O [LANEPITANT]  Condition not met
3  COc1ccccc1CN(C[C@@H](Cc1c[nH]c2ccccc12)NC(=O)COc1ccc(-n2ccnc2)cc1)C(C)=O      Condition met
4  COc1ccccc1CN(C[C@@H](Cc1c[nH]c2ccccc12)NC(=O)COc1ccc(-c2csnn2)cc1)C(C)=O      Condition met

Kindly review the next compound as well.
Kindly determine if bioavailability recorded for CC(=O)N(Cc1ccccc1Cl)C[C@@H](Cc1c[nH]c2ccccc12)NC(=O)COc1ccc(-n2ccnc2)cc1 is above or exactly 10%.
Condition met
